# credit: the supplement of paper PMC9112550

# Tested on: Escherichia coli TOP10
# Assay Comment: shrunken log2 fold change of peptide-encoding DNA abundance (4.5 h post-induction vs induction); higher = less antimicrobial activity (less host growth inhibition)
# Measurement Parameters: time post-induction: 4.5 h; library: site-saturation at positions 5, 18, 19, 20
Endpoint Name: shrunken log2 fold change

> print(dat)
             input.sequence       system.under.test              endpoint.name  test.value
 1  RRIRIRPPRLPRPRPRPQQYPRP  Escherichia coli TOP10  shrunken log2 fold change      -0.808
 2  RRIRFRPPRLPRPRPRPHQGPRP  Escherichia coli TOP10  shrunken log2 fold change     -0.0419
 3  RRIRVRPPRLPRPRPRPCEHPRP  Escherichia coli TOP10  shrunken log2 fold change     -0.0331
 4  RRIRKRPPRLPRPRPRPIEGPRP  Escherichia coli TOP10  shrunken log2 fold change    -0.00926
 5  RRIRDRPPRLPRPRPRPGNMPRP  Escherichia coli TOP10  shrunken log2 fold change      -0.164
 6  RRIRIRPPRLPRPRPRPMQVPRP  Escherichia coli TOP10  shrunken log2 fold change     0.00763
 7  RRIRRRPPRLPRPRPRPGEEPRP  Escherichia coli TOP10  shrunken log2 fold change       0.139
 8  RRIRYRPPRLPRPRPRPCCSPRP  Escherichia coli TOP10  shrunken log2 fold change      -0.141
 9  RRIRCRPPRLPRPRPRPRMCPRP  Escherichia coli TOP10  shrunken log2 fold change       0.337
10  RRIRRRPPRLPRPRPRPEANPRP  Escherichia coli TOP10  shrunken log2 fold change        0.78
11  RRIRVRPPRLPRPRPRPTPMPRP  Escherichia coli TOP10  shrunken log2 fold change       0.259
12  RRIRPRPPRLPRPRPRPARLPRP  Escherichia coli TOP10  shrunken log2 fold change     0.00523
13  RRIRSRPPRLPRPRPRPNNFPRP  Escherichia coli TOP10  shrunken log2 fold change      -0.667
14  RRIRNRPPRLPRPRPRPRCYPRP  Escherichia coli TOP10  shrunken log2 fold change     -0.0588
15  RRIRRRPPRLPRPRPRPEACPRP  Escherichia coli TOP10  shrunken log2 fold change       0.463

----------
# System: Escherichia coli TOP10;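 note: peptides expressed intracellularly from a pBAD plasmid library in pooled LB shake-flask culture, induced with 0.3% L-arabinose, DNA abundance read by NGS, three biological replicates, DESeq2 with apeglm shrinkage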
# Assay Comment: shrunken log2 fold change of peptide-encoding DNA abundance (4.5 h post-induction vs induction); higher = less antimicrobial activity (less host growth inhibition)
# Measurement Parameters: time post-induction: 4.5 h; library: site-saturation at positions 5, 18, 19, 20
Assign YES whenever shrunken log2 fold change does not fall below 0.06; assign NO whenever it does.

> print(dat)
             input.sequence  group
 1  RRIRNRPPRLPRPRPRPRSPPRP    YES
 2  RRIRRRPPRLPRPRPRPCSTPRP    YES
 3  RRIRARPPRLPRPRPRPCRPPRP     NO
 4  RRIRLRPPRLPRPRPRPDYDPRP     NO
 5  RRIRPRPPRLPRPRPRPYAMPRP     NO
 6  RRIRLRPPRLPRPRPRPIDTPRP    YES
 7  RRIRQRPPRLPRPRPRPVNLPRP     NO
 8  RRIRNRPPRLPRPRPRPAYKPRP     NO
 9  RRIRTRPPRLPRPRPRPTHSPRP    YES
10  RRIRCRPPRLPRPRPRPDGEPRP    YES
11  RRIRPRPPRLPRPRPRPHCCPRP     NO
12  RRIRVRPPRLPRPRPRPNNSPRP     NO
13  RRIRERPPRLPRPRPRPHQMPRP     NO
14  RRIRRRPPRLPRPRPRPIKVPRP     NO
15  RRIRCRPPRLPRPRPRPPIFPRP     NO
